experiment: self-splicing fitness, log relative to wild type (ln ratio); higher = more splicing; Tetrahymena group I intron in knt gene, E. coli kanamycin selection, DiMSum; sequences stand for … in CUCUCU…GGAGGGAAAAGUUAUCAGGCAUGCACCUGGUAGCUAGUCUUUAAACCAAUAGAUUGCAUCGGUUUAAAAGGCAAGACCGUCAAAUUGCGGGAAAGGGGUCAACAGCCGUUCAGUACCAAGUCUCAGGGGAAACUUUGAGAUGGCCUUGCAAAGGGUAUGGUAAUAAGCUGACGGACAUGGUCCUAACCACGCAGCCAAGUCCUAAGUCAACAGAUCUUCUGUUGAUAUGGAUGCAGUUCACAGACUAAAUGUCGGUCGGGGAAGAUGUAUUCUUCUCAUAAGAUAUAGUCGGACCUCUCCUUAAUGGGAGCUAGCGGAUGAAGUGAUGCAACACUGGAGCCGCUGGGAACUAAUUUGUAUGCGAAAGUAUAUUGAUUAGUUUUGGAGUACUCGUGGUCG; settings: 37 °C;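 note: selection with 25 µg/mL kanamycin versus none on LB agar overnight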
Is self-splicing fitness (ln) at least -2? Then yes. If not, no.

INSERT INTO measurements (item_sequence, label_class) VALUES
  ('UGAUAGCAAUAUUACGACCU', 'yes'),
  ('CCAAAGCAAUAUUACGGACC', 'yes'),
  ('GCAAAGCAAUAUUACGCGAU', 'no'),
  ('ACCGAGCAAUAUUACGAAGG', 'no'),
  ('UACUAGCAAUAUUACGAUUA', 'yes'),
  ('GCAAAGCAAUAUUACGGCGG', 'no'),
  ('CAGGAGCAAUAUUACGCAUA', 'yes'),
  ('CUCAAGCAAUAUUACGGUGU', 'yes'),
  ('AAUAAGCAAUAUUACGUAGG', 'yes'),
  ('AGAUAGCAAUAUUACGACUA', 'yes'),
  ('GGGUAGCAAUAUUACGUAUU', 'yes'),
  ('GGCUAGCAAUAUUACGGUUC', 'yes'),
  ('AAGCAGCAAUAUUACGAUUG', 'yes'),
  ('CUCAAGCAAUAUUACGCAAG', 'yes'),
  ('CGGGAGCAAUAUUACGCUUU', 'yes'),
  ('AGCGAGCAAUAUUACGUGUU', 'no');
